// provenance: paper PMC9352680

Target: T1, PUF4 RNA-binding domain (Saccharomyces cerevisiae, UniProt P25339 537-888)
T1 sequence: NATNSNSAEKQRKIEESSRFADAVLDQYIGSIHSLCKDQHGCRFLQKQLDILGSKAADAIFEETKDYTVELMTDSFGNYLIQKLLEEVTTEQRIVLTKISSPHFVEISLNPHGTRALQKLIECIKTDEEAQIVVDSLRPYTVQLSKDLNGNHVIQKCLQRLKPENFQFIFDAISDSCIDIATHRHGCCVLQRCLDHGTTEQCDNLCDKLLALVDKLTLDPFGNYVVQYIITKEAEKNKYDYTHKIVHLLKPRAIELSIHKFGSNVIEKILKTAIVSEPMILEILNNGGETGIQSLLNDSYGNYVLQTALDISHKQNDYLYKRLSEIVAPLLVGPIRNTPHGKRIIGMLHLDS
Assay: Mg; RNA-MaP; 20 mM Na-HEPES pH 7.4, 30 mM KOAc, 0.75 mM MgCl2, 0.1% Tween-20, 5% glycerol, 0.1 mg/mL BSA, 2 mM DTT; 25 C; 0.0125-409.6 nM protein
Settings: tags: N-His6-TEV cleaved; C-SNAP kept, Cy3B-labelled; label: tethered on chip by stalled RNA polymerase
pKd: −log10 of the molar value.
Measurement Label: pKd

1. UCUCUUAGUAUAUAUACCUCUCUU (ssRNA) [Id_ii_S1_P3E.3_K3.2_C3.2_[C-2A]_[T-1G]_H3.2_A3.1_F3.1_T3.2_[T9C]_[A10C]] : 6.02
2. UCUCUUUGUACUCUCUUCUCUU (ssRNA) [Ic_S1_P5E.1_K5.1_C5.1_H5.1_A5.1_[T5C]_[A7C]_F5.1_[T9C]_[A10T]_T5.1] : 6.53
3. ACAAACUGUAUUAUUUUCAACAAAC (ssRNA) [Ie_S3_P5E.1_K5.1_C5.1_H5.1_A5.1_F5.1_[+9TTC]_T5.1] : 7.70
4. Ib_S2_P4E.1_K4.1_C4.1_H4.1_A4.1_[T7C]_F4.1_[A9T]_T4.1 (ssRNA) RNA: UUUGAUUAAUAUGAUAUCGUUCUUUCUUGUAUACUUUUCUUUCUCGAUAUCAUAUUAAUCUUU : 8.56
5. UCUCUUUGUAAUAGUCUCUU (ssRNA) [Ic_S1_P3E.1_K3.1_C3.1_H3.1_A3.1_[T5A]_[A6T]_F3.1_[T7A]_[A8G]_T3.1] : 6.19
6. UCUCUUUGUAAUCUGUCUCUU (ssRNA) [Ic_S1_P4E.1_K4.1_C4.1_H4.1_A4.1_[T5A]_[A6T]_[T7C]_F4.1_[A9G]_T4.1] : 7.12
7. UCUCUUUGUAUCAAUGUCUCUU (ssRNA) [Ic_S1_P5E.1_K5.1_C5.1_H5.1_A5.1_[T6C]_F5.1_[T8A]_[A10G]_T5.1] : 6.45
8. UCUCUUUGUAUAUUAUUUUCUCUU (ssRNA) [Ie_S1_P4E.1_K4.1_C4.1_H4.1_A4.1_F4.1_[+9TTT]_T4.1] : 9.34
9. Id_ii_S2_P4E.4_K4.3_C4.2_[C-2A]_H4.3_A4.1_F4.1_T4.2_[G10C]_[T11A] (ssRNA) RNA: UUUGAUUAAUAUGAUAUCGUUCUUUCUAUACACUAUUACAUUCUUUCUCGAUAUCAUAUUAAUCUUU : 7.94
10. Ib_S4_P4E.1_K4.1_C4.1_H4.1_A4.1_[T5A]_F4.1_[T8A]_T4.1 (ssRNA) RNA: UUUGACAACUGAUCGUUCUUUCUUGUAAAUAAUUCUUUCUCGAUCAGUUGUCUUU : 7.56
11. Id_ii_S2_P5E.3_K5.2_C5.2_[C-2T]_H5.2_A5.1_F5.1_T5.2_[T11G]_[A12T] (ssRNA) RNA: UUUGAUUAAUAUGAUAUCGUUCUUUCUUUUAUAUUAUUAGUUUCUUUCUCGAUAUCAUAUUAAUCUUU : 6.35
12. Ic_S2_P4E.1_K4.1_C4.1_H4.1_A4.1_[T5C]_[A6C]_F4.1_[A9T]_T4.1 (ssRNA) RNA: UUUGAUUAAUAUGAUAUCGUUCUUUCUUGUACCUUUUUCUUUCUCGAUAUCAUAUUAAUCUUU : 8.16
13. UCUCUUUCUUAUAUAUACAUCUCUU (ssRNA) [Id_iii_S1_P3E.6_K3.2_C3.3_H3.2_A3.1_F3.1_T3.2_[T9C]] : 6.01
14. Ic_S4_P4E.1_K4.1_C4.1_H4.1_A4.1_[T5A]_[A6C]_[T7G]_F4.1_[T8G]_[A9T]_T4.1 (ssRNA) RNA: UUUGACAACUGAUCGUUCUUUCUUGUAACGGUUUCUUUCUCGAUCAGUUGUCUUU : 5.89
